# EXPERIMENTAL SYSTEM: T1, His6-tagged Bcl-XL (residues 1-208, N52D, N66D) (human), Q07817
# T1 chain: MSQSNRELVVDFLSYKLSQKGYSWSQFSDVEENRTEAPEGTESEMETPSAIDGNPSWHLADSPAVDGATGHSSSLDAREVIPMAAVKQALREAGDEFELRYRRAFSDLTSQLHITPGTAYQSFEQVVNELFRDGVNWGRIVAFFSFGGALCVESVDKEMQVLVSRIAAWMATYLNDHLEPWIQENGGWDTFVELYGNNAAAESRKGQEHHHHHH
# ASSAY NOTES: ITC, 25 °C
ASSAY READOUT: Kd (µM)
Report only the number, with the unit µM understood.

Solved entries (count: 3):
BINDER	ASSAY READOUT	MEASURED RESULT
GSGTMENLSRRLKVTGDLFDIMSGQT (modifications not checked) [Beclin 1 BH3D peptide, wild type]	Kd	1.95
GSGTMENLSRRLAVTGDLFDIMSGQT (modifications not checked) [Beclin 1 BH3D-derived peptide K117A]	Kd	18.9
GSGTMENLSRRLKVTGDLADIMSGQT (modifications not checked) [Beclin 1 BH3D-derived peptide F123A]	Kd	408

Now look at this one.
Prompt: Request the reported Kd associated with GSGTMENASRRLKVTGDLFDIMSGQT (modifications not checked) [Beclin 1 BH3D-derived peptide L112A]
Response: 110
